# protocol: Intrinsic clearance in human liver microsome
# Format: ADME
# statedConditions: liver microsomes
valueKind: CLint scaled (mL/min/kg)

                                 smilesrepr     valuekind      units  recordedmeasurement
0  CCc1ccc(-c2cc3ncn([C@H]4CCN(C(=O)N(C)[C@H]5CCN(C)C5)C4)c(=O)c3s2)cc1  CLint scaled  mL/min/kg                  200

a: CN1CC[C@H](N(C)C(=O)N2CC[C@H](n3cnc4cc(-c5ccc(Cl)cc5)sc4c3=O)C2)C1
b: CN(C(=O)N1CC[C@H](n2cnc3cc(-c4ccc(Cl)cc4)sc3c2=O)C1)[C@H]1CCN(CCCc2ccccc2)C1
c: CCc1ccc(-c2cc3ncn([C@H]4CCN(C(=O)N(C)[C@H]5CCN(C6CCOCC6)C5)C4)c(=O)c3s2)cc1
d: CN(C(=O)N1CC[C@H](n2cnc3cc(-c4ccc(Cl)cc4)sc3c2=O)C1)[C@H]1CCN(C2CCOCC2)C1
Rank items: key CLint scaled, increasing. In plain terms: list the labels in the order you were asked to.
a, d, b, c

Where do these numbers come from? They come from ChEMBL document CHEMBL1147859.
